Entries and their Median dimer activity (recombination on loxP)
Biological target: T1, Cre recombinase monomer with E176H mutation
T1 chain: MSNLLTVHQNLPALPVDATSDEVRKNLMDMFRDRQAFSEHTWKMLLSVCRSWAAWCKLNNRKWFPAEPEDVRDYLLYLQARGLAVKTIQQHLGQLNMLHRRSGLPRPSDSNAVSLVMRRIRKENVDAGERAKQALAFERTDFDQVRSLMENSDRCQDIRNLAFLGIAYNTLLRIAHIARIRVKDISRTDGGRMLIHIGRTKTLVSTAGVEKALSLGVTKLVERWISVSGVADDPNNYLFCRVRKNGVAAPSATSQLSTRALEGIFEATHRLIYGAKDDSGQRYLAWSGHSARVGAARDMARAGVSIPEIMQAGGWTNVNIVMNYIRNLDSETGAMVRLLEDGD
Give just the number in %; leave the unit off.

Solved cases (5 shown):
protein	unit-descriptor	reported-value
Cre recombinase monomer with R173C mutation (protein) MSNLLTVHQNLPALPVDATSDEVRKNLMDMFRDRQAFSEHTWKMLLSVCRSWAAWCKLNNRKWFPAEPEDVRDYLLYLQARGLAVKTIQQHLGQLNMLHRRSGLPRPSDSNAVSLVMRRIRKENVDAGERAKQALAFERTDFDQVRSLMENSDRCQDIRNLAFLGIAYNTLLCIAEIARIRVKDISRTDGGRMLIHIGRTKTLVSTAGVEKALSLGVTKLVERWISVSGVADDPNNYLFCRVRKNGVAAPSATSQLSTRALEGIFEATHRLIYGAKDDSGQRYLAWSGHSARVGAARDMARAGVSIPEIMQAGGWTNVNIVMNYIRNLDSETGAMVRLLEDGD	%	65
Cre recombinase monomer with R173W mutation (protein) MSNLLTVHQNLPALPVDATSDEVRKNLMDMFRDRQAFSEHTWKMLLSVCRSWAAWCKLNNRKWFPAEPEDVRDYLLYLQARGLAVKTIQQHLGQLNMLHRRSGLPRPSDSNAVSLVMRRIRKENVDAGERAKQALAFERTDFDQVRSLMENSDRCQDIRNLAFLGIAYNTLLWIAEIARIRVKDISRTDGGRMLIHIGRTKTLVSTAGVEKALSLGVTKLVERWISVSGVADDPNNYLFCRVRKNGVAAPSATSQLSTRALEGIFEATHRLIYGAKDDSGQRYLAWSGHSARVGAARDMARAGVSIPEIMQAGGWTNVNIVMNYIRNLDSETGAMVRLLEDGD	%	57
Cre recombinase monomer with R173E mutation (protein) MSNLLTVHQNLPALPVDATSDEVRKNLMDMFRDRQAFSEHTWKMLLSVCRSWAAWCKLNNRKWFPAEPEDVRDYLLYLQARGLAVKTIQQHLGQLNMLHRRSGLPRPSDSNAVSLVMRRIRKENVDAGERAKQALAFERTDFDQVRSLMENSDRCQDIRNLAFLGIAYNTLLEIAEIARIRVKDISRTDGGRMLIHIGRTKTLVSTAGVEKALSLGVTKLVERWISVSGVADDPNNYLFCRVRKNGVAAPSATSQLSTRALEGIFEATHRLIYGAKDDSGQRYLAWSGHSARVGAARDMARAGVSIPEIMQAGGWTNVNIVMNYIRNLDSETGAMVRLLEDGD	%	32
Cre recombinase monomer with R173T mutation (protein) MSNLLTVHQNLPALPVDATSDEVRKNLMDMFRDRQAFSEHTWKMLLSVCRSWAAWCKLNNRKWFPAEPEDVRDYLLYLQARGLAVKTIQQHLGQLNMLHRRSGLPRPSDSNAVSLVMRRIRKENVDAGERAKQALAFERTDFDQVRSLMENSDRCQDIRNLAFLGIAYNTLLTIAEIARIRVKDISRTDGGRMLIHIGRTKTLVSTAGVEKALSLGVTKLVERWISVSGVADDPNNYLFCRVRKNGVAAPSATSQLSTRALEGIFEATHRLIYGAKDDSGQRYLAWSGHSARVGAARDMARAGVSIPEIMQAGGWTNVNIVMNYIRNLDSETGAMVRLLEDGD	%	56
Cre recombinase monomer with R173I mutation (protein) MSNLLTVHQNLPALPVDATSDEVRKNLMDMFRDRQAFSEHTWKMLLSVCRSWAAWCKLNNRKWFPAEPEDVRDYLLYLQARGLAVKTIQQHLGQLNMLHRRSGLPRPSDSNAVSLVMRRIRKENVDAGERAKQALAFERTDFDQVRSLMENSDRCQDIRNLAFLGIAYNTLLIIAEIARIRVKDISRTDGGRMLIHIGRTKTLVSTAGVEKALSLGVTKLVERWISVSGVADDPNNYLFCRVRKNGVAAPSATSQLSTRALEGIFEATHRLIYGAKDDSGQRYLAWSGHSARVGAARDMARAGVSIPEIMQAGGWTNVNIVMNYIRNLDSETGAMVRLLEDGD	%	42

Please turn your attention to the following entry.
Median dimer activity (recombination on loxP) for Cre recombinase monomer with R173M mutation (protein) MSNLLTVHQNLPALPVDATSDEVRKNLMDMFRDRQAFSEHTWKMLLSVCRSWAAWCKLNNRKWFPAEPEDVRDYLLYLQARGLAVKTIQQHLGQLNMLHRRSGLPRPSDSNAVSLVMRRIRKENVDAGERAKQALAFERTDFDQVRSLMENSDRCQDIRNLAFLGIAYNTLLMIAEIARIRVKDISRTDGGRMLIHIGRTKTLVSTAGVEKALSLGVTKLVERWISVSGVADDPNNYLFCRVRKNGVAAPSATSQLSTRALEGIFEATHRLIYGAKDDSGQRYLAWSGHSARVGAARDMARAGVSIPEIMQAGGWTNVNIVMNYIRNLDSETGAMVRLLEDGD ? 75
